Target: T1, KicGAS (Kaposi sarcoma-associated herpesvirus …, UniProt Q2HR80 1-131)
T1 sequence: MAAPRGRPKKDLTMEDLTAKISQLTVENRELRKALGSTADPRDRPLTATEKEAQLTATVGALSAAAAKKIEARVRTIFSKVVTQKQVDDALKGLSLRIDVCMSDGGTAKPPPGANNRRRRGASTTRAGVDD
Test: EMSA; Hill n 1.95; EMSA: 20 mM Tris-HCl pH 7.4, 150 mM NaCl, 10% glycerol, on ice, 20 nM FAM-DNA, gel at 4 C; FP: 400 pg/ul FAM-DNA, buffer and temperature not stated; Hill fits
Details: protein: recombinant; tags: Avi-His6-SUMO removed (tag-free); label: 5' FAM sense strand; blunt
Endpoint label: Kd (nM)

Binder: ISD25 (dsDNA) DNA 1: CTAGTGATCTATGACTGATCTGTAC DNA 2: GTACAGATCAGTCATAGATCACTAG
Reading unit: nM
Measured: 380
